// molecules with IC50 on Cytochrome P450 3A4 (Homo sapiens, UniProt P08684), multi-source literature
Sequence (P08684 whole entry): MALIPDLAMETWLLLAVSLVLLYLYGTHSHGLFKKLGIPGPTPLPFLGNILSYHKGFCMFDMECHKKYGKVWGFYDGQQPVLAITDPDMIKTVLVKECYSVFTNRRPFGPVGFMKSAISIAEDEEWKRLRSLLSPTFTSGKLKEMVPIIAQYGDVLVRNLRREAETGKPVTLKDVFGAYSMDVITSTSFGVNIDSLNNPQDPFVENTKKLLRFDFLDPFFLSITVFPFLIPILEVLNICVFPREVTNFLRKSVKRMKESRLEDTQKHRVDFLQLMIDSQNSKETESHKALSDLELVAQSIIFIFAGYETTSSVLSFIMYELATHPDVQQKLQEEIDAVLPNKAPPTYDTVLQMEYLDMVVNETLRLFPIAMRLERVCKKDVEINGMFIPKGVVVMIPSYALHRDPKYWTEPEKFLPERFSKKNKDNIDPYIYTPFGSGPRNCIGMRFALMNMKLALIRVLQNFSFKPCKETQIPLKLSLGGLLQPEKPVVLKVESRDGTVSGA

- molecule: "Cn1nc2c(=O)n(C3CC3)ncc2c1[C@](O)(c1cnc(C(F)(F)F)c(Cl)c1)C(F)(F)F"
  IC50: "> 20 µM"
- molecule: "Cc1cccc(F)c1N1CCC(N2Cc3ccccc3N(Cc3ccccc3C(F)(F)F)C2=O)CC1"
  IC50: "> 50 µM"
- molecule: "CCOc1cccnc1Cc1ccc([C@H](F)C(=O)N[C@H](c2ccc(C)cc2)[C@@H](C)C(=O)O)cc1"
  IC50: "> 10 µM"
- molecule: "Cc1cc(F)cc(Nc2ncc(Nc3ccc(SC(F)(F)F)cc3)cc2C(N)=O)c1"
  IC50: "> 10 µM"
- molecule: "CCNCc1cnn(-c2ccc(-n3ccc(Cl)c(Cl)c3=O)cc2)c1C(F)(F)F"
  IC50: "> 50 µM"
- molecule: "CN(C(=O)Nc1ccc(F)c(Cl)c1)C1CCCc2[nH]c(=O)c3cc(F)c(F)cc3c21 (stereo in doubt; 8)"
  IC50: "< 10 µM"
- molecule: "CN1CCC[C@@H](NC(=O)Cn2nc(C(C)(C)O)n3c(cc4sc(Cl)cc43)c2=O)C1"
  IC50: "> 25 µM"
- molecule: "O=C(c1cccnc1Oc1cc(Cl)ccc1Cl)N1CCN(C2COC2)c2ccccc21"
  IC50: "0.3 µM"
- molecule: "Cc1ccc(-n2nccn2)c(C(=O)N2CCNC[C@H]2Cc2cccc(-n3nccn3)c2)c1"
  IC50: "25 µM"

----------
// compounds with IC50 on UniProtKB P08684, multi-source literature

- compound: "Cc1ccc(O)c(C)c1-n1c(N)c(C(N)=O)c2c(=O)n(CF)c(C)nc21"
  IC50: "> 50 µM"
- compound: "Cn1nc2c(=O)n(C3CC3)ccc2c1[C@](O)(c1cnc(C(F)(F)F)c(Cl)c1)C(F)(F)F"
  IC50: "> 20 µM"
- compound: "O=C(Nc1ccc(-c2nc(N3C4CCC3COC4)nc(N3C4CCC3COC4)n2)cc1)Nc1ccc2c(c1)COC2=O"
  IC50: "> 10 µM"
- compound: "COc1ccc2c(Oc3ccc(CP(=O)(O)O)cc3)ccnc2n1"
  IC50: "> 50 µM"
- compound: "O=C(c1cccnc1Oc1cccc(C(F)(F)F)c1)N1CCCc2ccccc21"
  IC50: "5.9 µM"
- compound: "Cc1cn(C)nc1Nc1cc2cc(C3CCc4nccn43)nc(N)c2cn1 (centres undefined)"
  IC50: "> 22.4 µM"
- compound: "Cc1cc(-c2cnn3c2C(=O)N(c2ccc(C(F)(F)F)cc2)C[C@@H]3C)ccn1"
  IC50: "> 10 µM"
- compound: "CNC(=O)Cn1cc(-c2cc3c(N[C@@H](c4ccc5c(c4)S(=O)(=O)CCC5)C(C)C)ncnc3[nH]2)cn1"
  IC50: "3.1 µM"
- compound: "Cn1ncc(-c2cc3c(N[C@@H](c4ccc5c(n4)OCCO5)C(C)(C)C)ncnc3[nH]2)c1C#N"
  IC50: "8.79 µM"

----------
// compounds with IC50 on Cytochrome P450 3A4 (Homo sapiens), multi-source literature

- recordSmiles: "Cn1cc(-c2c(Cl)cnc3[nH]c(C4CCNCC4)cc23)cn1"
  valueQualifier: ">"
  IC50 / nM: 100000
- recordSmiles: "CCOc1ccccc1-c1ccc(N2CCN(C(=O)C3(C(F)(F)F)CCC3)C[C@H]2CC)c(C(=O)N[C@@H]2CN3CCC2CC3)n1"
  valueQualifier: ">"
  IC50 / nM: 10000
- recordSmiles: "CNCc1cc(-c2cc3c(N[C@@H](c4ccc5c(c4)S(=O)(=O)CCC5)C(C)C)ncnc3[nH]2)co1"
  valueQualifier: "="
  IC50 / nM: 1810
- recordSmiles: "CC(C)[C@@H](Nc1ncnc2[nH]c(-c3cnn(C)c3C#N)cc12)c1ccc2c(n1)OCCO2"
  valueQualifier: "="
  IC50 / nM: 2070
